tested on: APJ-eGFP fusion protein; assay: Internalization assay, CHO-M1 cells expressing APJ-eGFP, high-content imaging; type: cell-based; conditions: lowest concentration at which maximum internalization was observed; 0.914 nM to 2000 nM
Sequence (P35414 whole entry, the tested form may be a part): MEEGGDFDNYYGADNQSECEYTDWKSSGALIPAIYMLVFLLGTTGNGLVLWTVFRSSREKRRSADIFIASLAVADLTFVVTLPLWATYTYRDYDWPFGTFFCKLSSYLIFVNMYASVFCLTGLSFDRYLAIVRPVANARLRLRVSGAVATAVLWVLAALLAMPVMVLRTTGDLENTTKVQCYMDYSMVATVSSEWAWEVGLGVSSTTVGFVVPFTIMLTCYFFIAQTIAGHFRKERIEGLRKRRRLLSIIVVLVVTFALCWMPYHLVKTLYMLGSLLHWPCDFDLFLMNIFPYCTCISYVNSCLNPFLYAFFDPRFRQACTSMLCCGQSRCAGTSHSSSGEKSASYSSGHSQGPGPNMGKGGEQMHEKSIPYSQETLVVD
Reported Metric: Internalization Score

Molecule: APL-F: Fc-linker fusion of apelin analogue QRPRLSHKGPAPY (M11A, F13Y) (protein) MRAWIFFLLCLAGRALADKTHTSPPSPAPEAAGGPSVFLFPPKPKDTLMISRTPEVTCVVVDVSHEDPEVKFNWYVDGVEVHNAKTKPREEQYNSTYRVVSVLTVLHQDWLNGKEYKCKVSNKALPAPIEKTISKAKGQPREPQVYTLPPSREEMTKNQVNLTCLVKGFYPSDIAVEWESNGQPENNYKTTPPVLDSDGSFFLNSTLTVDKSRWQQGNVFSCSVMHEALHNHYTQKSLSLSPGKGGGGSGGGGSGGGGSQRPRLSHKGPAPY
Reported Metric: Internalization Score
Test Result: 1 (>1000)

Consider the record given below.
Bench note: what Internalization Score did ELA-B: Fc-linker fusion of elabela analogue KLNKHNCLQRRCMPLHSRVPFP (R3N) (protein) MRAWIFFLLCLAGRALADKTHTSPPSPAPEAAGGPSVFLFPPKPKDTLMISRTPEVTCVVVDVSHEDPEVKFNWYVDGVEVHNAKTKPREEQYNSTYRVVSVLTVLHQDWLNGKEYKCKVSNKALPAPIEKTISKAKGQPREPQVYTLPPSREEMTKNQVNLTCLVKGFYPSDIAVEWESNGQPENNYKTTPPVLDSDGSFFLNSTLTVDKSRWQQGNVFSCSVMHEALHNHYTQKSLSLSPGKGGGGSGGGGSGGGGSKLNKHNCLQRRCMPLHSRVPFP show? 3 (10-100)
